Cited source for all entries: ChEMBL document CHEMBL2016485

- procedureDetails: Solubility in fasted state simulated intestinal fluid at pH 6.5 at 0.5 hrs
- Type: physicochemical
readout: solubility at 0.5 h (µM)

[a] CS(=O)(=O)O.Cc1nc(N2CCC(O)(C3CC3)CC2)nc2ccc(NC(=O)/C=C/c3ccc(Cl)cc3)cc12
[b] Cc1nc(N2CCC(O)(C3CC3)CC2)nc2ccc(NC(=O)/C=C/c3ccc(Cl)cc3)cc12
// pick larger solubility at 0.5 h from pair: a vs b Pick one and reply with its label.
a

###

- procedureDetails: AUC (0 to 24 hrs) in mouse at 30 mg/kg, po
- Type: ADME, organism-based
- Parameters: time < 24 hr, dose 30 mg/kg, route oral
- measurementConditions: plasma
readout: AUC(0-t) at 24 h (µM·h)
Write the number in µM·h without appending the unit.

# compound `Cc1nc(N2CCC(O)(C3CC3)CC2)nc2ccc(NC(=O)/C=C/c3ccc(Cl)cc3)cc12` ; its AUC(0-t) at 24 h = 33.4

###

- procedureDetails: AUC (0 to 24 hrs) in dog at 6 mg/kg, iv
- Format: ADME, organism-based, Canis lupus familiaris
- Parameters: time < 24 hr, dose 6 mg/kg, route intravenous
- measurementConditions: plasma
readout: AUC(0-t) at 24 h (µM·h)
Write the number in µM·h without appending the unit.

# molecule `CS(=O)(=O)O.Cc1nc(N2CCC(O)(C3CC3)CC2)nc2ccc(NC(=O)/C=C/c3ccc(Cl)cc3)cc12` ; its AUC(0-t) at 24 h = 43.5

###

- procedureDetails: Cmax in dog at 6 mg/kg, iv relative to initial plasma concentration
- Assay type: ADME, organism-based, Canis lupus familiaris
- Set-up: dose 6 mg/kg, route intravenous
readout: Cmax (µM)
Write the number in µM without appending the unit.

# compound `CS(=O)(=O)O.Cc1nc(N2CCC(O)(C3CC3)CC2)nc2ccc(NC(=O)/C=C/c3ccc(Cl)cc3)cc12` ; its Cmax = 9.9

###

- procedureDetails: AUC (0 to 24 hrs) in rat at 30 mg/kg, po
- Type: ADME, organism-based
- Parameters: time < 24 hr, dose 30 mg/kg, route oral
- measurementConditions: plasma
readout: AUC(0-t) at 24 h (µM·h)

[A] CS(=O)(=O)O.Cc1nc(N2CCC(O)(C3CC3)CC2)nc2ccc(NC(=O)/C=C/c3ccc(Cl)cc3)cc12
[B] Cc1nc(N2CCC(O)(C3CC3)CC2)nc2ccc(NC(=O)/C=C/c3ccc(Cl)cc3)cc12
// pick larger AUC(0-t) at 24 h from pair: A vs B Pick one and reply with its label.
A

###

- procedureDetails: Cmax in rat at 30 mg/kg, po relative to initial plasma concentration
- Assay type: ADME, organism-based
- Parameters: dose 30 mg/kg, route oral
readout: Cmax (µM)

[I] CS(=O)(=O)O.Cc1nc(N2CCC(O)(C3CC3)CC2)nc2ccc(NC(=O)/C=C/c3ccc(Cl)cc3)cc12
[II] Cc1nc(N2CCC(O)(C3CC3)CC2)nc2ccc(NC(=O)/C=C/c3ccc(Cl)cc3)cc12
Between I and II , which one has the lower reported Cmax value? Pick one and reply with its label.
II
(II: 2.4 µM, I: 7.8 µM)

###

- procedureDetails: AUC at steady state in diet-induced obese C57BL/6J mouse model plasma at 100 mg/kg, po qd dosed through CMC/Tween 80 suspension for 14 days measured at day 14
- Assay type: ADME, organism-based
- Design: dose 100 mg/kg, route oral
readout: AUC at 336 h (µM·h)
Write the number in µM·h without appending the unit.

# molecule `Cc1nc(N2CCC(O)(C3CC3)CC2)nc2ccc(NC(=O)/C=C/c3ccc(Cl)cc3)cc12` ; its AUC at 336 h = 104

###

- procedureDetails: AUC at steady state in diet-induced obese C57BL/6J mouse model plasma at 30 mg/kg, po bid dosed through micronized suspension for 14 days measured at day 14
- Type: ADME, organism-based
- Set-up: dose 30 mg/kg, route oral
readout: AUC at 336 h (µM·h)

querySmiles | AUC at 336 h (µM·h)
Cc1nc(N2CCC(N3CCCC3=O)CC2)nc2ccc(NC(=O)/C=C/c3ccc(OC(F)(F)F)cc3)cc12 | 385
Cc1nc(N2CCC(N3CCOCC3=O)CC2)nc2ccc(NC(=O)/C=C/c3ccc(OC(F)(F)F)cc3)cc12 | 312
Cc1nc(N2CCC(N3CCOC3=O)CC2)nc2ccc(NC(=O)/C=C/c3ccc(OC(F)(F)F)cc3)cc12 | 284

###

- procedureDetails: Cmax in dog at 5 mg/kg, po relative to initial plasma concentration
- Assay type: ADME, organism-based, Canis lupus familiaris
- Parameters: dose 5 mg/kg, route oral
readout: Cmax (nM)
Write the number in nM without appending the unit.

# molecule `CS(=O)(=O)O.Cc1nc(N2CCC(O)(C3CC3)CC2)nc2ccc(NC(=O)/C=C/c3ccc(Cl)cc3)cc12` ; its Cmax = 2500

###

- procedureDetails: Cmax in beagle dog at 6 mg/kg, iv
- Format: ADME, organism-based, Canis lupus familiaris
- Design: dose 6 mg/kg, route intravenous
- measurementConditions: in vivo
readout: Cmax (µM)
Write the number in µM without appending the unit.

# compound `CS(=O)(=O)O.Cc1nc(N2CCC(O)(C3CC3)CC2)nc2ccc(NC(=O)/C=C/c3ccc(Cl)cc3)cc12` ; its Cmax = 6.4
